Biological target: T1, Nat1 (LTIITLE) (also: TFA salt)
T1 peptide: LTIITLE
Assay: cell-based or functional assay
Non-standard residues stand in square brackets, D forms with d. No end group written: not given here. hArg = N=C(N)NCCCC[C@H](N)C(=O)O
measurement-name: IC50, Thiofiavin T aggregation assay (nM)
Give bare numbers, in nM.

Below are 4 binders. Give each one its IC50, Thiofiavin T aggregation assay.
1. [dH][dW][dR][dY][dH][dR][dR] [hwryhrr]
2. [dR][dQ][dM][dQ][dY][dR][dR] [rqmqyrr]
3. LRIRFFR
4. I[hArg]I[hArg]RWR [Ile-homoArg-Ile-homoArg-Arg-Trp-Arg]

1: 139; 2: 236; 3: 90; 4: 49

Below are 3 binders. Give each one its IC50, Thiofiavin T aggregation assay.
1. ARIRRYR
2. [dR][dW][dR][dY][dL][dR][dR] [rwrylrr]
3. LYIRYTH

144
49
180

Below are 6 binders. Give each one its IC50, Thiofiavin T aggregation assay.
1. [dR][dW][dY][dW][dH][dH][dR] [rwywhhr]
2. LTIRTLH
3. LTIRLWH
4. LSIRQH
5. [dR][dI][dR][dW][dY][dW][dK] [rirwywk]
6. [dR][dF][dY][dY][dH][dR][dR] [rfyyhrr]

115
537
198
945
110
76

Below are 4 binders. Give each one its IC50, Thiofiavin T aggregation assay.
1. ILRLYFR
2. LRIYRVR
3. YTYMLWK
4. [dR][dQ][dH][dY][dH][dW][dR] [rqhyhwr]

1: 8970; 2: 81; 3: 824; 4: 296
